Kindly supply the reported relative KD to parent values for the records listed here.
Biological target: T1, His-tagged CEACAM1 (human, UniProt P13688 35-428)
T1 construct: 45 kDa SPR analyte; also called CEACAM1-HIS; CEACAM1 analyte
T1 sequence: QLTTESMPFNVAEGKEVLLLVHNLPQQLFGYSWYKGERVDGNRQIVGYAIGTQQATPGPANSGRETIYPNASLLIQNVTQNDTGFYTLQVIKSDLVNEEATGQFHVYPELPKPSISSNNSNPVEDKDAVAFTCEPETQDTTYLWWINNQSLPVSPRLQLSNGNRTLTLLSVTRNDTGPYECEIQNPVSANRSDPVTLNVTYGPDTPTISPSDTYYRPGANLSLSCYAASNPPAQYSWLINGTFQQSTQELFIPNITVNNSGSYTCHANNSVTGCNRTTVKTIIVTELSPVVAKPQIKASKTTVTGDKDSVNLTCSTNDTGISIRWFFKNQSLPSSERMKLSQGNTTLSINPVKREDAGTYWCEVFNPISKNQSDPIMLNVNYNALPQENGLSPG
Experiment: SPR single-cycle, purified IgG captured
Give bare numbers.

As a guide, the following entries are already answered.
[[record]]
binder = "8H3_9B3/CP08E05 (antibody, IgG4, V domains shown, IgG4 (S241P), kappa) VH: EVQLLESGGGLVQPGGSLRLSCAASGFTFNAHAISWVRQAPGKGLEWVATISSGGTYTYYPDSVKGRFTISRDNSKNTLYLQMNSLKAEDTAMYYCARHDFDYFPYWFAHWGQGTLVTVSS VL: EIVLTQSPATLSLSPGERATLSCRANSAVSYMYWYQQKPGQAPRPWIYLTSNRATGVPARFSGSGSGTDYTLTISSLEPEDFAVYYCQQWTTNPPTFGQGTKLEIK"
experimental_result = 6.9

[[record]]
binder = "VH1/Vκ8 S29A (antibody, IgG4, V domains shown, IgG4 (S241P), kappa; also called Parent; Parent (VH1/Vκ8 S29A)) VH: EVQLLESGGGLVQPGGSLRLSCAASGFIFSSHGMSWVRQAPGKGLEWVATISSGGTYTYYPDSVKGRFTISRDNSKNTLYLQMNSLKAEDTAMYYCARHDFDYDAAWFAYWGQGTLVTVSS VL: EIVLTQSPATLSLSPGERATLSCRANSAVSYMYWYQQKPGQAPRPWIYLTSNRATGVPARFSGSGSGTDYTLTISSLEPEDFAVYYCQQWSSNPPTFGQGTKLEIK"
experimental_result = 1

[[record]]
binder = "8H3_9B3/CP08F05 (antibody, IgG4, V domains shown, IgG4 (S241P), kappa) VH: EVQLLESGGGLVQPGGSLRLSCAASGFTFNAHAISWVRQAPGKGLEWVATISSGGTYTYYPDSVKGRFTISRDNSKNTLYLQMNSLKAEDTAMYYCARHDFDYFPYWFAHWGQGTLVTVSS VL: EIVLTQSPATLSLSPGERATLSCRANSAVSYMYWYQQKPGQAPRPWIYLTSNRATGVPARFSGSGSGTDYTLTISSLEPEDFAVYYCQQWTSNPPTFGQGTKLEIK"
experimental_result = 8

[[record]]
binder = "9B3_9E5/CP08E05 (antibody, IgG4, V domains shown, IgG4 (S241P), kappa) VH: EVQLLESGGGLVQPGGSLRLSCAASGFTFNAHAISWVRQAPGKGLEWVATISSGGTYTYYPDSVKGRFTISRDNSKNTLYLQMNSLKAEDTAMYYCARHGFDYDAAWFAYWGQGTLVTVSS VL: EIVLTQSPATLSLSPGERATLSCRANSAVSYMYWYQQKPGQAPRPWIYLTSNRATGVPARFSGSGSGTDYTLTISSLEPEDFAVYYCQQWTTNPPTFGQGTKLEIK"
experimental_result = 7.8


Let's switch to this binder now.
Exercise: May I ask what relative KD to parent has been recorded for 8H3_9C2/CP08F05 (antibody, IgG4, V domains shown, IgG4 (S241P), kappa; also called 8H3_9C2/CPO08_F05) VH: EVQLLESGGGLVQPGGSLRLSCAASEFTFSDHAMSWVRQAPGKGLEWVATISSGGTYTYYPDSVKGRFTISRDNSKNTLYLQMNSLKAEDTAMYYCARHGFDYFPYWFAHWGQGTLVTVSS VL: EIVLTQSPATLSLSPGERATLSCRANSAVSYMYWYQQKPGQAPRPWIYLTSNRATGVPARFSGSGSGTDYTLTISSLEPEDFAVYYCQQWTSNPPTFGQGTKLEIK ?
Solution: 6.3
